Here, each record is paired with measured Kd data.
- target.of.assay: CYP125MRCA
- assay.method.text: UV-Vis difference-spectrum substrate titration
- condition.label: read-out: Kd (Hill model), Table 1

mol: CC[C@H](/C=C/[C@@H](C)[C@H]1CC[C@H]2[C@@H]3CC=C4C[C@@H](O)CC[C@]4(C)[C@H]3CC[C@]12C)C(C)C
Kd / nM: 2040

mol: CC[C@H](CC[C@@H](C)[C@H]1CC[C@H]2[C@@H]3CCC4=CC(=O)CC[C@]4(C)[C@H]3CC[C@]12C)C(C)C
Kd / nM: 1610

mol: CC(C)CCC[C@@H](C)[C@H]1CC[C@H]2[C@@H]3CC=C4C[C@@H](O)CC[C@]4(C)[C@H]3CC[C@]12C
Kd / nM: 2000

mol: CC(C)[C@H](C)CC[C@@H](C)[C@H]1CC[C@H]2[C@@H]3CC=C4C[C@@H](O)CC[C@]4(C)[C@H]3CC[C@]12C
Kd / nM: 4190

mol: C=C1CC[C@H](O)C/C1=C/C=C1\CCC[C@]2(C)[C@@H]([C@H](C)CCCC(C)C)CC[C@@H]12
Kd / nM: 1600

mol: CC(C)CCC[C@@H](C)[C@H]1CC[C@H]2[C@@H]3CCC4=CC(=O)CC[C@]4(C)[C@H]3CC[C@]12C
Kd / nM: 850

Data origin: paper PMC12100521
